Just for reference, paper PMC11286772 is where these values come from.

target: ETA F161^3.28A (Homo sapiens, UniProt P25101, F161A); experiment: Calcium mobilization assay, antagonist mode
Sequence (P25101 21-427 F161A): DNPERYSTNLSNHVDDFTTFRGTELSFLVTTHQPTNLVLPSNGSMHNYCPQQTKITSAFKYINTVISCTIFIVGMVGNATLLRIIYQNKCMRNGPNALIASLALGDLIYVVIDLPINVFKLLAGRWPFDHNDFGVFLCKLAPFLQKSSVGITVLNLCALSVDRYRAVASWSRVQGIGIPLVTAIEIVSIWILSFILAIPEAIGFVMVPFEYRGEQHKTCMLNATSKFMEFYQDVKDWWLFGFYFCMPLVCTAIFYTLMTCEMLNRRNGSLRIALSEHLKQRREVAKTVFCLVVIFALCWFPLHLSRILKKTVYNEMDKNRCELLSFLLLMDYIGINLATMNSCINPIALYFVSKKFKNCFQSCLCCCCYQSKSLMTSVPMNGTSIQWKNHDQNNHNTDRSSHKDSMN
Kindly supply the reported pIC50 values for the records listed here.
Answers are plain numbers, as −log10 of the molar value.

CCCNS(=O)(=O)Nc1ncnc(OCCOc2ncc(Br)cn2)c1-c1ccc(Br)cc1    7.75

From here, focus on the item given below.
// query Consider the molecule COC(c1ccccc1)(c1ccccc1)[C@H](Oc1nc(C)cc(C)n1)C(=O)O and give its measured pIC50.
// result 7.05

----------
target: ETB H150^2.53Y (Homo sapiens, UniProt P24530, H150Y); construct: expressed in transfected cells; host or cells: CHO-K1; test: Calcium mobilization assay, antagonist mode; assay type: cell-based
Sequence (P24530 27-442 H150Y): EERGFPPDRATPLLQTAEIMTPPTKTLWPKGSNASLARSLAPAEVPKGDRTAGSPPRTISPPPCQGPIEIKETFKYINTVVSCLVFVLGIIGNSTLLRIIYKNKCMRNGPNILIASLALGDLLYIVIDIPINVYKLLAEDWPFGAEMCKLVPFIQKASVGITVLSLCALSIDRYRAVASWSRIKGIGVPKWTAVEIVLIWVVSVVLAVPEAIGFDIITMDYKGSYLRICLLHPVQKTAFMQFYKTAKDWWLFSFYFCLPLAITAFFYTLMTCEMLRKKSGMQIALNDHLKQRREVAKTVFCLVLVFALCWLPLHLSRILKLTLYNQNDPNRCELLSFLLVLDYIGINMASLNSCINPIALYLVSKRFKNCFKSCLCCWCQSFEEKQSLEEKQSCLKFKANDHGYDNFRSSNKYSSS
Measure Name: pIC50
One number for each entry, as −log10 of the molar value.

// query Consider the compound COc1nc(C)cnc1NS(=O)(=O)c1cccnc1-c1ccc(-c2nnco2)cc1 and give its measured pIC50.
// result 4.25
